# assay-system: human IL-6R on CHO-K1 cells (clone HuIL6R 4D6) (human, UniProt P08887)
# assay-comment: FMAT competition; competitor Reference IgG-A647; CHO cells with human IL-6R
property-name: IC50

Which IC50 value is on record for IL6RPMP105E1 (VHH) VHH: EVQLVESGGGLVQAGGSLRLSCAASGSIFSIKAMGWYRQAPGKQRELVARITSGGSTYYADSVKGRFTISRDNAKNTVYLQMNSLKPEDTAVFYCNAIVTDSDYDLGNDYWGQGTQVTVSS ?
> 100 nM
